- targetEntity: NADPH oxidase 4 (Homo sapiens)
- procedureDetails: compounds shifting NOX4 Amplex Red fluorescence – cell-based, HEK293-NOX4, tetracycline-induced, NOX inhibitor project, primary screen (AID 1160)
- testConditions: HEK293-NOX4, Amplex Red H2O2 fluorescence, 45 min; higher = more signal, called active from +8 up or from −8 down
The source made the active and inactive calls.
observedProperty: z-score

Observe how each entry below is paired with its result.
[[record]]
compound = "COc1ccc([Si](C)(C)[C@@H]2[C@@H](CCO)O[C@]3(C(=O)N(Cc4ccccc4)c4ccc(N5CCOC5=O)cc43)[C@H]2C)cc1"
targetentity = "NADPH oxidase 4 (Homo sapiens)"
valuemeasured = "0.699 (inactive)"

[[record]]
compound = "[N-]=[N+]=Nc1ccccc1C[C@]1(C(=O)NCC(O)CO)COC(c2ccc(OCCCO)cc2)=N1 (stereo not given in full)"
targetentity = "NADPH oxidase 4 (Homo sapiens)"
valuemeasured = "0.179 (inactive)"

[[record]]
compound = "CN(C)CCCCCCNC(=O)[C@@H]1C[C@@H]2C(=O)N3CCC[C@H]3C(=O)N2[C@@H]1c1cccc(OCCO)c1"
targetentity = "NADPH oxidase 4 (Homo sapiens)"
valuemeasured = "-0.884 (inactive)"

[[record]]
compound = "COC(=O)[C@@]1(Cc2ccc(OC)cc2)[C@H]2c3cc(C(=O)N4CCCC4)n(CCc4c[nH]c5ccc(OC)cc45)c3C[C@H]2CN1C(=O)c1ccccc1"
targetentity = "NADPH oxidase 4 (Homo sapiens)"
valuemeasured = "1.14 (inactive)"

[[record]]
compound = "Cc1ccc(NN2C(C(O)c3c(F)cccc3Cl)C=CC3C(=O)N(C4CCCCC4)C(=O)C32)cc1 (stereo not given)"
targetentity = "NADPH oxidase 4 (Homo sapiens)"
valuemeasured = "-0.336 (inactive)"

[[record]]
compound = "CCCC=C(CCC)[C@@H](NC(=O)C(C)(C)C)c1ccc(C(=O)OC)cc1"
targetentity = "NADPH oxidase 4 (Homo sapiens)"
valuemeasured = "0.624 (inactive)"


Below are 4 compounds. Give each one its z-score.
1. NCCCCCNC(=O)[C@H]1C[C@H]2C(=O)N3CCC[C@H]3C(=O)N2[C@H]1c1cccc(OCCO)c1
2. COCCOC(=O)N1C(=O)[C@@]2(c3cc(C#CCC(C(=O)OC)C(=O)OC)ccc31)[C@H](c1ccc(OCCO)cc1)N1[C@H](c3ccccc3)[C@H](c3ccccc3)OC(=O)[C@H]1[C@@H]2C(=O)N1CCc2cc(OC)c(OC)cc2C1
3. COc1ccc(C#Cc2ccc3c(c2)[C@]2(C(=O)N3)[C@H](c3ccc(O)cc3)N3[C@H](c4ccccc4)[C@H](c4ccccc4)OC(=O)[C@H]3[C@@H]2C(=O)Nc2nc3ccccc3s2)cc1
4. CCCCC[C@H]1OC[C@@]23C=C(Br)[C@@H](CC12)[C@@]1(CO1)C3=O (stereo not given in full)

Reply:
1. 0.413 (inactive)
2. 1.17 (inactive)
3. -0.838 (inactive)
4. 0.438 (inactive)

###

- procedureDetails: probe aNOTCH3 binding on compound microarray – biochemical, small-molecule microarray, 635/667 nm fluorescence, primary screen (AID 1120);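 note: probe is a biotin-tagged antibody raised against NOTCH3 rather than NOTCH3 protein; score merges spot fluorescence near 667 nm with spot signal to noise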
- testConditions: higher = more signal
Class Yes: composite z-score at least 0.04. Class No: composite z-score below 0.04.

Query: Is the recorded value of composite z-score equal to or greater than 0.04 for this molecule? COc1ccc(C#Cc2ccc3c(c2)[C@]2(C(=O)N3)[C@H](c3ccc(O)cc3)N3[C@H](c4ccccc4)[C@H](c4ccccc4)OC(=O)[C@H]3[C@@H]2C(=O)Nc2nc3ccccc3s2)cc1
Reply: No

Query: Is the recorded value of composite z-score equal to or greater than 0.04 for this molecule? C=CCOC(=O)[C@@H]1[C@H]2C(=O)O[C@H](c3ccccc3)[C@H](c3ccccc3)N2[C@H](c2ccc(OCCOC(=O)[C@@H]3C[C@@H]4C(=O)N[C@@H](CCCC[N+](C)(C)C)C(=O)N4[C@@H]3c3ccc(O)cc3)cc2)[C@@]12C(=O)Nc1ccc(I)cc12
Reply: No

Query: Is the recorded value of composite z-score equal to or greater than 0.04 for this molecule? COC(=O)[C@@]1(Cc2ccc(OC)cc2)[C@H]2c3cc(C(=O)N(C)C)n(Cc4ccc(C)o4)c3C[C@H]2CN1C(=O)c1ccccc1
Reply: Yes

Query: Is the recorded value of composite z-score equal to or greater than 0.04 for this molecule? COc1cc2c(cc1O)C(c1cccs1)N(Cc1cc3c(cc1Br)OCO3)CC2 (stereo unspecified)
Reply: Yes

Query: Is the recorded value of composite z-score equal to or greater than 0.04 for this molecule? CCCCN1CC=CC23O[C@@H]4/C=C\CCCOC(=O)C4[C@H]2C(=O)N(CCO)[C@@H]3C1=O (stereo partly specified)
Reply: No

Query: Is the recorded value of composite z-score equal to or greater than 0.04 for this molecule? COC(=O)[C@@]1(Cc2ccccc2)[C@H]2c3cc(C(=O)N(C)C)n(Cc4ccc(C)o4)c3C[C@H]2CN1C(=O)c1ccccc1
Reply: Yes
